These measurements were taken from patent US9550772B2.

Below: a set of entries, each annotated with reported inhibition at 0.1 µM.
# Experimental Target: EGFR (ErbB1) (Homo sapiens, UniProt P00533)
# Construct: purchased Invitrogen
# Sequence (P00533 25-1210): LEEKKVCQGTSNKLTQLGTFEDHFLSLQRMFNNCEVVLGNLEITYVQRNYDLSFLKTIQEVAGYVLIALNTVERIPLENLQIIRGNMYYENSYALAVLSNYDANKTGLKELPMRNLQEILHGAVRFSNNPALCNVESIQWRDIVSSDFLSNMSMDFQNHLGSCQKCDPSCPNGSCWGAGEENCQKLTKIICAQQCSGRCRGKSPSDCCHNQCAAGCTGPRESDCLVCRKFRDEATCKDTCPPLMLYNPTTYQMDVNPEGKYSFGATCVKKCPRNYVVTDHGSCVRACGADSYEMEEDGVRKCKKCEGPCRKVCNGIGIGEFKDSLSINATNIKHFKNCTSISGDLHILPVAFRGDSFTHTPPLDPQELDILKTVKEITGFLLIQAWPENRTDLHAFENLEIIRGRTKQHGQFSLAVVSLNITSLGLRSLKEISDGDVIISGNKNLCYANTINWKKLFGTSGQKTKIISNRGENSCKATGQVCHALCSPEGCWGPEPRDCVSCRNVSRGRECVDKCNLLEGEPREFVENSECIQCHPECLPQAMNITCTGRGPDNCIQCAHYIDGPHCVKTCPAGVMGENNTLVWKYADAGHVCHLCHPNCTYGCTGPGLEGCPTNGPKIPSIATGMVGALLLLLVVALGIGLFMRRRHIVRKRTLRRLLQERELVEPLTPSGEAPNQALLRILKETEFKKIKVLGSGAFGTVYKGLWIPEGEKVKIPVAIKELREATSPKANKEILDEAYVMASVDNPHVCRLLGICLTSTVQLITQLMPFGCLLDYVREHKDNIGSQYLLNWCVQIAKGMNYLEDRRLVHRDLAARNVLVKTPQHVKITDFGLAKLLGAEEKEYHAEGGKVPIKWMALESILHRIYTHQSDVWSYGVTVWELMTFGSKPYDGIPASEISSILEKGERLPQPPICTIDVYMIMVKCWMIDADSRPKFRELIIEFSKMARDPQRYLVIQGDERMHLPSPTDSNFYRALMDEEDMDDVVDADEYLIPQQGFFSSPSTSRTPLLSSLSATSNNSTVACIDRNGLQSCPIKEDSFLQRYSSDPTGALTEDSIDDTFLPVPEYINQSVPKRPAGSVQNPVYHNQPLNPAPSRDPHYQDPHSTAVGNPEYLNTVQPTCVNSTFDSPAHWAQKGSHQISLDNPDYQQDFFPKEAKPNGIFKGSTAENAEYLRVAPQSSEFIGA
# Test Description: In vitro kinase assay (Z'-LYTE, Invitrogen)
# Assay type: biochemical
# Measurement Context: compound at 100 nM, ATP Km apparent, read-out: % of inhibition of the kinase compared to the control

Observe how each entry below is paired with its result.
Recall the recorded inhibition at 0.1 µM for COC(=O)c1cc2cc(CCc3cccc(NC(=O)c4ccc5[nH]ccc5c4)c3)cnc2[nH]1 [OR0978] with EGFR (ErbB1) (Homo sapiens, UniProt P00533) and state it. < 50%

Recall the recorded inhibition at 0.1 µM for COC(=O)c1cc2cc(CCc3cc(NC(=O)c4ccc(CN5CCC(N(C)C)C5)c(C(F)(F)F)c4)ccc3C)cnc2[nH]1 (stereo not shown) [OR0775] with EGFR (ErbB1) (Homo sapiens, UniProt P00533) and state it. ≥ 50%

Recall the recorded inhibition at 0.1 µM for CC(=O)c1cc2cc(CCc3cc(NC(=O)c4ccc(CN5CCN(C)CC5)cc4)ccc3C)cnc2[nH]1 [OR0799] with EGFR (ErbB1) (Homo sapiens, UniProt P00533) and state it. ≥ 50%

Recall the recorded inhibition at 0.1 µM for CC(=O)c1cc2cc(CCc3cc(NC(=S)Nc4cccc(C(F)(F)F)c4)ccc3C)cnc2[nH]1 [OR1017] with EGFR (ErbB1) (Homo sapiens, UniProt P00533) and state it. < 50%

Recall the recorded inhibition at 0.1 µM for CC(=O)c1cc2cc(CCc3cc(NC(=O)c4ccc(CN5CCC(N(C)C)C5)c(C(F)(F)F)c4)ccc3C)cnc2[nH]1 (stereo not shown) [OR0798] with EGFR (ErbB1) (Homo sapiens, UniProt P00533) and state it. ≥ 50%

Recall the recorded inhibition at 0.1 µM for COC(=O)c1cc2cc(CCc3cc(NC(=O)c4ccccc4OC)ccc3Cl)cnc2[nH]1 [OR1064] with EGFR (ErbB1) (Homo sapiens, UniProt P00533) and state it. < 50%

API: the following record is the query input.
Recall the recorded inhibition at 0.1 µM for COC(=O)c1cc2cc(C=Cc3cc(NC(=O)c4ccc(CN5CCN(C)CC5)cc4)ccc3C)cnc2[nH]1 [OR0776] with EGFR (ErbB1) (Homo sapiens, UniProt P00533) and state it. < 50%
